system: NCI-H1395; experiment: relative viability (nuclei count vs DMSO), 5 days (fraction); higher = more cells survive; settings: first compound 6.325 µM
Field: relative viability. Provide a value for each of the compounds that follow.

>>> reported_value("COCC1(CO)C(=O)C2CCN1CC2 (stereo not given) [PRIMA-1MET] + CS(=O)(=O)CCNCc1ccc(-c2ccc3ncnc(Nc4ccc(OCc5cccc(F)c5)c(Cl)c4)c3c2)o1 [Lapatinib] (partner 2 µM)")
0.89
>>> reported_value("COCC1(CO)C(=O)C2CCN1CC2 (stereo not given) [PRIMA-1MET] + CC(=O)Nc1cccc(-n2c(=O)n(C3CC3)c(=O)c3c(Nc4ccc(I)cc4F)n(C)c(=O)c(C)c32)c1 [Trametinib] (partner 0.02 µM)")
1.02
>>> reported_value("COCC1(CO)C(=O)C2CCN1CC2 (stereo not given) [PRIMA-1MET] + Cc1nc(Nc2ncc(C(=O)Nc3c(C)cccc3Cl)s2)cc(N2CCN(CCO)CC2)n1 [Dasatinib] (partner 0.075 µM)")
0.38
>>> reported_value("COCC1(CO)C(=O)C2CCN1CC2 (stereo not given) [PRIMA-1MET] + CS(=O)(=O)N1CCN(Cc2cc3nc(-c4cccc5[nH]ncc45)nc(N4CCOCC4)c3s2)CC1 [Pictilisib] (partner 1 µM)")
0.518

// below: relative viability requested for another compound
## Task Specify relative viability for COCC1(CO)C(=O)C2CCN1CC2 (stereo not given) [PRIMA-1MET] + COc1cc2c(Oc3ccc(NC(=O)C4(C(=O)Nc5ccc(F)cc5)CC4)cc3F)ccnc2cc1OCCCN1CCOCC1 [Foretinib] (partner 0.25 µM) and stop.
## Result 1

---

test system: LXF-289; assay: relative viability (nuclei count vs DMSO), 5 days (fraction); higher = more cells survive; conditions: first compound 0.1 µM
Binarize relative viability at 0.8; below is met, at or above is not met.

Here are 3 molecules together with their reported answers.
>>> category_label("CCN(CC)CCCCNc1ncc2cc(-c3cc(OC)cc(OC)c3)c(NC(=O)NC(C)(C)C)nc2n1 + Cc1nc(NC(=O)N2CCC[C@H]2C(N)=O)sc1-c1ccnc(C(C)(C)C(F)(F)F)c1 [Alpelisib] (partner 2 µM)")
"not met"
>>> category_label("O=c1cc(N2CCOCC2)oc2c(-c3cccc4c3sc3ccccc34)cccc12 + COc1cccc2cc(-c3nc([C@H]4CC[C@H](C(=O)O)CC4)n4ncnc(N)c34)[nH]c12 [OSI-027] (partner 0.5 µM)")
"met"
>>> category_label("O=c1cc(N2CCOCC2)oc2c(-c3cccc4c3sc3ccccc34)cccc12 + O=C(CCCCCCC(=O)Nc1ccccc1)NO [Vorinostat] (partner 1 µM)")
"met"

## Task For this molecule, is relative viability lower than 0.8? CCN(CC)CCCCNc1ncc2cc(-c3cc(OC)cc(OC)c3)c(NC(=O)NC(C)(C)C)nc2n1 + O=C(c1cc(Cc2n[nH]c(=O)c3ccccc23)ccc1F)N1CCN(C(=O)C2CC2)CC1 [Olaparib] (partner 8 µM)
## Result not met

## Task For this molecule, is relative viability lower than 0.8? O=c1cc(N2CCOCC2)oc2c(-c3cccc4c3sc3ccccc34)cccc12 + O=C(c1cc(Cc2n[nH]c(=O)c3ccccc23)ccc1F)N1CCN(C(=O)C2CC2)CC1 [Olaparib] (partner 8 µM)
## Result not met

## Task For this molecule, is relative viability lower than 0.8? CCN(CC)CCCCNc1ncc2cc(-c3cc(OC)cc(OC)c3)c(NC(=O)NC(C)(C)C)nc2n1 + COc1cc2c(Oc3ccc(NC(=O)C4(C(=O)Nc5ccc(F)cc5)CC4)cc3F)ccnc2cc1OCCCN1CCOCC1 [Foretinib] (partner 0.25 µM)
## Result not met

---

test system: LOU-NH91; experiment: relative viability (nuclei count vs DMSO), 5 days (fraction); higher = more cells survive; conditions: first compound 0.08 µM
Field: relative viability. Provide a value for each of the compounds that follow.

Consider the following illustrative entries.
>>> reported_value("COc1nc(C)cnc1NS(=O)(=O)c1cccnc1-c1ccc(-c2nnco2)cc1 [Zibotentan] + CCNC(=O)c1noc(-c2cc(C(C)C)c(O)cc2O)c1-c1ccc(CN2CCOCC2)cc1 [Luminespib] (partner 0.01 µM)")
0.33
>>> reported_value("O=c1cc(-c2cccc3c2Sc2ccccc2S3)oc(N2CCOCC2)c1 + NC(=O)Nc1cc(-c2cccc(F)c2)sc1C(=O)N[C@H]1CCCNC1 [AZD7762] (partner 0.2 µM)")
0.764
>>> reported_value("O=c1cc(-c2cccc3c2Sc2ccccc2S3)oc(N2CCOCC2)c1 + CC1(C)CCC(c2ccc(Cl)cc2)=C(CN2CCN(c3ccc(C(=O)NS(=O)(=O)c4ccc(N[C@H](CCN5CCOCC5)CSc5ccccc5)c(S(=O)(=O)C(F)(F)F)c4)cc3)CC2)C1 [Navitoclax] (partner 0.5 µM)")
0.711
>>> reported_value("COc1nc(C)cnc1NS(=O)(=O)c1cccnc1-c1ccc(-c2nnco2)cc1 [Zibotentan] + Nc1ncn([C@H]2C[C@H](O)[C@@H](CO)O2)c(=O)n1 [Decitabine] (partner 2 µM)")
0.799

Please give relative viability for each item listed below.
1. O=c1cc(-c2cccc3c2Sc2ccccc2S3)oc(N2CCOCC2)c1 + CC(C)C[C@H](NC(=O)[C@H](Cc1ccccc1)NC(=O)c1cnccn1)B(O)O [Bortezomib] (partner 0.002 µM)
2. O=c1cc(-c2cccc3c2Sc2ccccc2S3)oc(N2CCOCC2)c1 + C[C@@H](Oc1cc(-c2cnn(C3CCNCC3)c2)cnc1N)c1c(Cl)ccc(F)c1Cl [Crizotinib] (partner 1 µM)
3. COc1nc(C)cnc1NS(=O)(=O)c1cccnc1-c1ccc(-c2nnco2)cc1 [Zibotentan] + Cc1nc(NC(=O)N2CCC[C@H]2C(N)=O)sc1-c1ccnc(C(C)(C)C(F)(F)F)c1 [Alpelisib] (partner 2 µM)

## Result
1: 0.481; 2: 0.727; 3: 0.749

Please give relative viability for each item listed below.
1. O=c1cc(-c2cccc3c2Sc2ccccc2S3)oc(N2CCOCC2)c1 + CCNC(=O)c1noc(-c2cc(C(C)C)c(O)cc2O)c1-c1ccc(CN2CCOCC2)cc1 [Luminespib] (partner 0.01 µM)
2. O=c1cc(-c2cccc3c2Sc2ccccc2S3)oc(N2CCOCC2)c1 + COc1cc2c(Oc3ccc(NC(=O)C4(C(=O)Nc5ccc(F)cc5)CC4)cc3F)ccnc2cc1OCCCN1CCOCC1 [Foretinib] (partner 0.25 µM)
3. O=c1cc(-c2cccc3c2Sc2ccccc2S3)oc(N2CCOCC2)c1 + C[C@]1(O)C[C@@H](c2nc(-c3ccc4ccc(-c5ccccc5)nc4c3)c3c(N)nccn32)C1 [Linsitinib] (partner 1 µM)
4. COc1nc(C)cnc1NS(=O)(=O)c1cccnc1-c1ccc(-c2nnco2)cc1 [Zibotentan] + COc1cc2c(Oc3ccc(NC(=O)C4(C(=O)Nc5ccc(F)cc5)CC4)cc3F)ccnc2cc1OCCCN1CCOCC1 [Foretinib] (partner 0.25 µM)

## Result
1: 0.327; 2: 0.976; 3: 0.946; 4: 0.903

---

system: HCC-15; experiment: relative viability (nuclei count vs DMSO), 5 days (fraction); higher = more cells survive; settings: first compound 0.01 µM
Parameter: relative viability
Numbers only.

Consider the following illustrative entries.
>>> reported_value("O=c1cc(N2CCOCC2)oc2c(-c3cccc4c3sc3ccccc34)cccc12 + NC(=O)Nc1cc(-c2cccc(F)c2)sc1C(=O)N[C@H]1CCCNC1 [AZD7762] (partner 0.2 µM)")
1.23
>>> reported_value("CCN(CC)CCCCNc1ncc2cc(-c3cc(OC)cc(OC)c3)c(NC(=O)NC(C)(C)C)nc2n1 + C[C@]1(O)C[C@@H](c2nc(-c3ccc4ccc(-c5ccccc5)nc4c3)c3c(N)nccn32)C1 [Linsitinib] (partner 1 µM)")
1.04
>>> reported_value("CCN(CC)CCCCNc1ncc2cc(-c3cc(OC)cc(OC)c3)c(NC(=O)NC(C)(C)C)nc2n1 + O=C(CCCCCCC(=O)Nc1ccccc1)NO [Vorinostat] (partner 1 µM)")
0.857

Please give relative viability for each item listed below.
1. CCN(CC)CCCCNc1ncc2cc(-c3cc(OC)cc(OC)c3)c(NC(=O)NC(C)(C)C)nc2n1 + CS(=O)(=O)N1CCN(Cc2cc3nc(-c4cccc5[nH]ncc45)nc(N4CCOCC4)c3s2)CC1 [Pictilisib] (partner 1 µM)
2. O=c1cc(N2CCOCC2)oc2c(-c3cccc4c3sc3ccccc34)cccc12 + Cc1nc(NC(=O)N2CCC[C@H]2C(N)=O)sc1-c1ccnc(C(C)(C)C(F)(F)F)c1 [Alpelisib] (partner 2 µM)

## Result
[0.813, 0.87]

---

system: ChaGo-K-1; test: relative viability (nuclei count vs DMSO), 5 days (fraction); higher = more cells survive; conditions: first compound 0.8 µM
Parameter: relative viability
Answers are plain numbers.

Consider the following illustrative entries.
>>> reported_value("COc1nc(C)cnc1NS(=O)(=O)c1cccnc1-c1ccc(-c2nnco2)cc1 [Zibotentan] + O=C(c1cc(Cc2n[nH]c(=O)c3ccccc23)ccc1F)N1CCN(C(=O)C2CC2)CC1 [Olaparib] (partner 8 µM)")
0.322
>>> reported_value("O=c1cc(-c2cccc3c2Sc2ccccc2S3)oc(N2CCOCC2)c1 + O=C(CCCCCCC(=O)Nc1ccccc1)NO [Vorinostat] (partner 1 µM)")
0.876
>>> reported_value("O=c1cc(-c2cccc3c2Sc2ccccc2S3)oc(N2CCOCC2)c1 + CC1(C)CCC(c2ccc(Cl)cc2)=C(CN2CCN(c3ccc(C(=O)NS(=O)(=O)c4ccc(N[C@H](CCN5CCOCC5)CSc5ccccc5)c(S(=O)(=O)C(F)(F)F)c4)cc3)CC2)C1 [Navitoclax] (partner 0.5 µM)")
1.12
>>> reported_value("O=c1cc(-c2cccc3c2Sc2ccccc2S3)oc(N2CCOCC2)c1 + COc1cccc2cc(-c3nc([C@H]4CC[C@H](C(=O)O)CC4)n4ncnc(N)c34)[nH]c12 [OSI-027] (partner 0.5 µM)")
0.479

// below: relative viability requested for another molecule
## Task Specify relative viability for O=c1cc(-c2cccc3c2Sc2ccccc2S3)oc(N2CCOCC2)c1 + N=C(N)NC(=N)NCCc1ccccc1 [Phenformin] (partner 250 µM) and stop.
## Result 0.56
